- measured-target: Cyclin D1 (UniProt P24385)
- Sequence (P24385 whole entry): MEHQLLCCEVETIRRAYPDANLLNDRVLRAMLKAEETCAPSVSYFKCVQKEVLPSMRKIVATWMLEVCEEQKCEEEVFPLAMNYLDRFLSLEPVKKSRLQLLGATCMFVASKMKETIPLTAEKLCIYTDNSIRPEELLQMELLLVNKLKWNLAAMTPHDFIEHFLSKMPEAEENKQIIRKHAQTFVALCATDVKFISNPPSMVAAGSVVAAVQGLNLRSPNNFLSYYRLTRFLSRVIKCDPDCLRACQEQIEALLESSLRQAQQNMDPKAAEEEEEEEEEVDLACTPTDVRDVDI
- protocol: competitive ELISA: cyclin D1 binding to immobilised biotinyl-Ahx-p21(149-159)
quantity-measured: pIC50
One number for each entry, as −log10 of the molar value.

P21 N-terminus peptide KAURRLFG-NH2 :: 3.87

// query Notebook: pull reported pIC50 for Cyclin D1 (UniProt P24385), entry P21 N-terminus-LIF hybrid KAURRLIF-NH2 (peptide)
// result 4.70

====

- measured-target: Cyclin A (UniProt P20248)
- protocol: competitive cyclin A binding ELISA; competitor: immobilised biotinyl-Ahx-His-Ala-Lys-Arg-Arg-Leu-Ile-Phe-NH2 (SEQ ID No. 186)
- condition-info: scale: relative to H-His-Ala-Lys-Arg-Arg-Leu-Ile-Phe-NH2
Square brackets hold non-standard residues; d marks the D form. Phe(3-F) = N[C@@H](Cc1cccc(F)c1)C(=O)O; Phe(4-F) = N[C@@H](Cc1ccc(F)cc1)C(=O)O; Cha = N[C@@H](CC1CCCCC1)C(=O)O; Phe(ol) = N[C@H](CO)Cc1ccccc1; Nle = CCCC[C@H](N)C(=O)O; Nva = CCC[C@H](N)C(=O)O; Abu = CC[C@H](N)C(=O)O
Task for the reader: assign each of the following substances its reported Relative activity, Cyclin A Binding.
Answers are plain numbers.

H-HAKRRLAF-NH2 :: 0.8
H-HFKRRLIF-NH2 :: 0.2
H-HAKRRLI[Phe(3-F)]-NH2 :: 0.8
H-HALRRLIF-NH2 :: 1.4
H-HAKRRLI[Phe(ol)] :: 1
H-HAKRRL[Nva]F-NH2 :: 0.6
H-HAKRRL[Cha]F-NH2 :: 0.5
H-HAKRRLI[Phe(4-F)]-NH2 :: 5

Batch of 6 substances: report Relative activity, Cyclin A Binding for each.
1. H-H[Abu]KRRLIF-NH2
2. H-HGKRRLIF-NH2
3. H-His-Ala-Lys-Arg-Arg-Leu-1Nap-Phe-NH2 (peptide)
4. H-HAKRRL[Nle]F-NH2
5. H-HAKRRLIW-NH2
6. H-HAKRRLLF-NH2

// result
1. 1.3
2. 0.1
3. 0.5
4. 0.3
5. 0.1
6. 0.6

Batch of 7 substances: report Relative activity, Cyclin A Binding for each.
1. H-HAARRLIF-NH2
2. H-HVKRRLIF-NH2
3. H-HAKRRLIY-NH2
4. H-HAKKRLIF-NH2
5. H-His-Bug-Lys-Arg-Arg-Leu-Ile-Phe-NH2 (peptide)
6. H-HARRRLIF-NH2
7. H-His-Ala-Lys-Arg-Arg-Leu-Ile-Dhp-OH (peptide)

// result
[0.5, 1.7, 0.2, 0.1, 1.2, 1.5, 0.2]

Batch of 8 substances: report Relative activity, Cyclin A Binding for each.
1. H-HIKRRLIF-NH2
2. H-HAKRSLIF-NH2
3. H-HAKRRLFF-NH2
4. H-His-Ala-Lys-Arg-Arg-Leu-Ile-L-Pse-OH (peptide)
5. H-His-Ala-Lys-Arg-Arg-Leu-Ile-2Nap-NH2 (peptide)
6. H-HAKRRLVF-NH2
7. H-His-Ala-Lys-Cit-Arg-Leu-Ile-Phe-NH2 (peptide)
8. H-HAKRRIIF-NH2

// result
0.2
0.2
0.4
0.2
0.7
1.5
0.2
0.2

// query For the substance H-His-Ala-Lys-Arg-Arg-Leu-Ile-D-Pse-OH (peptide) , what Relative activity, Cyclin A Binding is on record?
// result 0.1

====

- measured-target: Cyclin A (UniProt P20248)
- protocol: cyclin A binding assay, IC50 (immobilised ligand not given)
quantity-measured: IC50 (µM)
Numbers only, in µM.

// query For the substance Ac-Arg-Arg-Leu-Asn-Phe-NH2 (peptide) , what IC50 is on record?
// result 8.15

====

Task for the reader: assign each of the following substances its reported Relative activity, Cyclin A Binding (relative to HAKRRLIF-NH2).
- measured-target: Cyclin A (UniProt P20248)
- protocol: competitive ELISA: cyclin A binding to immobilised biotinyl-Ahx-HAKRRLIF-NH2
One number for each entry.

Here's what some known entries look like.
H-FAKRRLIF-NH2 :: 1
H-Thi-Ala-Lys-Arg-Arg-Leu-Ile Phe-NH2 (peptide) :: 0.2
H-AAKRRLIF-NH2 :: 2.5
H-Pya-Ala-Lys-Arg-Arg-Leu-Ile Phe-NH2 (peptide) :: 0.2
H-Dab-Ala-Lys-Arg-Arg-Leu-Ile Phe-NH2 (peptide) :: 0.4

Now consider a different substance.
// query For the substance H-Hse-Ala-Lys-Arg-Arg-Leu-Ile Phe-NH2 (peptide) , what Relative activity, Cyclin A Binding (relative to HAKRRLIF-NH2) is on record?
// result 2
